conditionDetails: in water, 288.2 K
assayMetric: solubility (mole fraction)

INSERT INTO assay_data (substancesmiles, assaymetric, numericresult) VALUES
  ('CC(C)=CCOc1c2ccoc2cc2oc(=O)ccc12', 'solubility (mole fraction)', '6.03e-07');

====

conditionDetails: in ethanol, 313.2 K
assayMetric: solubility (mole fraction)

INSERT INTO measurements (substancesmiles, result) VALUES
  ('CC(C)=CCOc1c2ccoc2cc2oc(=O)ccc12', 0.0134);

====

conditionDetails: in water, 323.2 K
assayMetric: solubility (mole fraction)

INSERT INTO measurements (substancesmiles, assaymetric, numericresult) VALUES
  ('CC(C)=CCOc1c2ccoc2cc2oc(=O)ccc12', 'solubility (mole fraction)', '2.17e-06');
